All values here come from patent US20200207734A1.

# testSystem: human orexin type 2 receptor (Homo sapiens, UniProt O43614)
# Construct: human orexin type 2 receptor cDNA was inserted into pcDNA3.1(+) plasmid vector (Invitrogen); expressed in transfected cells
# Sequence (O43614 whole entry): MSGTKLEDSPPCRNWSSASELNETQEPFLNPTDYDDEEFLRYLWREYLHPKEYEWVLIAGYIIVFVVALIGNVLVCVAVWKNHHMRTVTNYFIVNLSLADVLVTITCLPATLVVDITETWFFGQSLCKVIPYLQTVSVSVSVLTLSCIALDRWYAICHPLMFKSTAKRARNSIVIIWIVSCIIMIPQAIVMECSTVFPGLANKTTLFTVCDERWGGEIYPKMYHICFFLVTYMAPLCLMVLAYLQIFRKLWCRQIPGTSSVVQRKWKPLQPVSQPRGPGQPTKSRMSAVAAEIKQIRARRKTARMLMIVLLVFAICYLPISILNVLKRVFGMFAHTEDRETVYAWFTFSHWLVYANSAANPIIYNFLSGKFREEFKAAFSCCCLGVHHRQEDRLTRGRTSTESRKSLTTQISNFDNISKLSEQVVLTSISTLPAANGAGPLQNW
# assayName: Measurement of orexin type 2 receptor agonist activity (calcium fluorescence, CHO cells expressing hOX2R)
# Type: cell-based
# assaySetup: test compound 3 μM; CHO cells expressing human OX2 receptor; DMSO = 0%, orexin A (human) = 100%
Exercise: state measured OX2R agonist activity (3 μM, %) for each of the molecules provided.
Kindly answer with a numeric value in %, unit omitted.

What value of OX2R agonist activity (3 μM, %) has been reported for the following molecule? "CS(=O)(=O)N[C@H]1CCN(C(=O)C2CCC2)[C@H]1Cc1cccc(-c2ccccc2)c1"
97

What value of OX2R agonist activity (3 μM, %) has been reported for the following molecule? CC(C)(O)C(=O)N1CC[C@H](NS(C)(=O)=O)[C@@H]1Cc1cccc(-c2cc(F)cc(F)c2)c1F [Example 483]
103

What value of OX2R agonist activity (3 μM, %) has been reported for the following molecule? "CN(C)C(=O)N1CC[C@H](NS(C)(=O)=O)[C@@H]1Cc1cccc(-c2cc(F)cc(F)c2)c1"
100

What value of OX2R agonist activity (3 μM, %) has been reported for the following molecule? CCOC(=O)N1CCC[C@H](NS(C)(=O)=O)[C@@H]1Cc1cccc(-c2ccccc2)c1 (relative stereo)
98

What value of OX2R agonist activity (3 μM, %) has been reported for the following molecule? "CS(=O)(=O)N[C@H]1CCN(C(=O)C2(O)CCC2)[C@H]1Cc1cccc(-c2cccc(F)c2)c1"
107

What value of OX2R agonist activity (3 μM, %) has been reported for the following molecule? "O=C(N1CCC1)N1CC[C@H](NS(=O)(=O)C2CC2)[C@@H]1Cc1cccc(-c2ccccc2)c1"
105

What value of OX2R agonist activity (3 μM, %) has been reported for the following molecule? "CS(=O)(=O)N[C@H]1CCN(C(=O)C23CC(C2)C3)[C@H]1Cc1cccc(-c2cccc(F)c2)c1"
100

What value of OX2R agonist activity (3 μM, %) has been reported for the following molecule? CC(C)OC(=O)N1CCC[C@H](NS(=O)(=O)CCl)[C@@H]1Cc1cccc(-c2ccccc2)n1 (relative stereo)
100

What value of OX2R agonist activity (3 μM, %) has been reported for the following molecule? CCNC(=O)N1CCC[C@H](NS(C)(=O)=O)[C@@H]1Cc1cccc(Cc2ccccc2)c1 (relative stereo)
81

What value of OX2R agonist activity (3 μM, %) has been reported for the following molecule? CC(C)OC(=O)N1CC[C@H](NS(C)(=O)=O)[C@@H]1Cc1cccc(-c2ccccc2)c1 (relative stereo)
104

What value of OX2R agonist activity (3 μM, %) has been reported for the following molecule? "CS(=O)(=O)N[C@H]1CCN(C(=O)N2CC(F)C2)[C@H]1Cc1cccc(-c2cccc(F)c2)c1"
98

What value of OX2R agonist activity (3 μM, %) has been reported for the following molecule? "COCS(=O)(=O)N[C@H]1CCN(C(=O)C2CCC2)[C@H]1Cc1cccc(-c2cccc(F)c2)c1"
103

What value of OX2R agonist activity (3 μM, %) has been reported for the following molecule? "CCS(=O)(=O)N[C@H]1CCN(C(=O)N(C)OC)[C@H]1Cc1cccc(-c2ccccc2)c1"
107

What value of OX2R agonist activity (3 μM, %) has been reported for the following molecule? CS(=O)(=O)N[C@H]1CCN(C(=O)C2CCC2)[C@H]1Cc1csc(-c2ccccc2)n1 (relative stereo)
101
